Cited source for all entries: patent US20260042755A1

Below, each of the compounds is paired with its reported pIC50 value.
SYSTEM_UNDER_TEST: GPR6 (Homo sapiens)
Construct: expressed in transfected cells; host or cells: CHO cells
Sequence (P46095 whole entry): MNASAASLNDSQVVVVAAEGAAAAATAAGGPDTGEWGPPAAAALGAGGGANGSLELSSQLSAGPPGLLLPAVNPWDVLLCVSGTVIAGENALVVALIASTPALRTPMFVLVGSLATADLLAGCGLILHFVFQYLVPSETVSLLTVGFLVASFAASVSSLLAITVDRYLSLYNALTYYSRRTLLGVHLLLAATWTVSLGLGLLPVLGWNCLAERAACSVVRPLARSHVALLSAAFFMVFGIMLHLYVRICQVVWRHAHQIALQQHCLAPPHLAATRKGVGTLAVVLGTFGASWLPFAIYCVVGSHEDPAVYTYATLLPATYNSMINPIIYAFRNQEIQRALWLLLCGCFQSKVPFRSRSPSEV
MEASUREMENT_DESCRIPTION: GPR6 antagonist functional cAMP assay (LANCE Ultra cAMP TR-FRET, CHO cells stably expressing GPR6)
Format: cell-based
CONDITIONS_USED: procedure of Example 24
pIC50: −log10 of the molar value.

According to the records, this compound CCn1cc(-c2nc3c(nc2N2CCC(Oc4ccc(F)cc4F)CC2)CCN(C(=O)C(C)(C)O)C3)cn1 displays pIC50 of > 7.00

get_value(item= CC(C)(O)[C@@H](O)c1cc2nc(-c3cn[nH]c3)c(N3CCN(Cc4ccc(F)cc4F)CC3)nc2cn1 (single isomer, unassigned) , readout=pIC50) returns 6.00 to 7.00

pIC50 reported for this compound Cn1cc(-c2nc3cnc([C@](C)(O)C(C)(C)O)cc3nc2N2CCC(Oc3ccc(F)cc3F)CC2)cn1 (single isomer, unassigned) : 6.00 to 7.00

In plain terms, CC(=O)N1CCc2nc(N3CCC(Oc4ccccc4F)C3)c(-c3cnn(C)c3)nc2C1 (stereo not shown) has a documented pIC50 of 4.52 to 6.00

pIC50 in this record for CC(C)(O)[C@@H](O)c1cc2nc(N3CCN(Cc4ccccc4F)CC3)c(-c3cnn(C4CC4)c3)nc2cn1 (single isomer, unassigned) : 6.00 to 7.00

Input CC(C)(O)C(C)(O)c1cc2nc(-c3cnn(C(F)F)c3)c(N3CCN(Cc4ccccc4F)CC3)nc2cn1 (single isomer, unassigned) [Compound 709] . Output pIC50: 6.00 to 7.00

GET /value?item= Cn1cc(-c2nc3cnc(C4CNC(=O)O4)cc3nc2N2CCC(Oc3ccc(F)cc3F)CC2)cn1 (stereo not shown) &field=pIC50 returns 6.00 to 7.00

What the record says about CC(=O)N1CCc2nc(N3CCN(C(c4ccc(F)cc4F)C(F)(F)F)CC3)c(-c3cnn(C)c3)nc2C1 (stereo not shown) : pIC50 is 4.52 to 6.00

The compound CC(C)(O)[C@@](C)(O)c1cc2nc(N3CCC(Oc4ccc(F)cc4F)CC3)c(-c3cnn(C4CC4)c3)nc2cn1 (single isomer, unassigned) showed pIC50 equal to 6.00 to 7.00

Noted for CC(C)(O)[C@@H](O)c1cc2nc(N3CCC(=Cc4ccc(F)cc4F)CC3)c(-c3cnn(CF)c3)nc2cn1 (single isomer, unassigned) : its pIC50 reads > 7.00
